Parameter Km: see the listing below.
# assay procedure: Enzymatic kinetic measurements of purified proteins with compound A as substrate
# Type: biochemical
# setup conditions: purified protein, compound A 0-1000 μM as substrate
Record the value in µM, omitting the unit from your answer.

SEQ ID NO: 50: RdpA mutant L82H + V187L + F182W + R104G + V80T (protein) MHAALSPLSQRFERIAVQPLTGVLGAEITGVDLREPLDDSTWNEILDAFHTYQVIYFPGQAITNEQHIAFSRRFGPVDPTPHLKSIEGYPEVQMIRREANESGGVIGDDWHTDSTFLDAPPAAVVMRAIDVPEHGGDTGFLSMYTAWETLSPTMQATIEGLNVVHSATRVFGSLYQAQNRRWSNTSLKVMDVDAGDRETVHPLVVTHPGSGRKGLYVNQVYCQRIEGMTDAESKPLLQFLYEHATRFDFTCRVRWKKDQVLVWDNLCTMHRAVPDYAGKFRYLTRTTVGGVRPAR; 24.9

# context switch: different molecule, same Km
[ask] Which value of Km has been reported for SEQ ID NO: 118: RdpA mutant L82H + V187L + F182W + R104G + V77I (protein) MHAALSPLSQRFERIAVQPLTGVLGAEITGVDLREPLDDSTWNEILDAFHTYQVIYFPGQAITNEQHIAFSRRFGPIDPVPHLKSIEGYPEVQMIRREANESGGVIGDDWHTDSTFLDAPPAAVVMRAIDVPEHGGDTGFLSMYTAWETLSPTMQATIEGLNVVHSATRVFGSLYQAQNRRWSNTSLKVMDVDAGDRETVHPLVVTHPGSGRKGLYVNQVYCQRIEGMTDAESKPLLQFLYEHATRFDFTCRVRWKKDQVLVWDNLCTMHRAVPDYAGKFRYLTRTTVGGVRPAR in the records?
[reply] 83.7

Hello, the source for this data is patent US20250163449A1, in case you need it.
